target: HIV-1 RT wild-type enzyme (Human immunodeficiency virus type 1 group M subtype B (isolate HXB2) (HIV-1)); test: HIV-1 reverse transcriptase inhibitory activity (RT polymerase assay); format: biochemical; details: HIV-1 RT wild-type enzyme 83 pM; RNA-dependent DNA polymerase activity; read-out: IC50
# IC50 per record follows
Report only the number, with the unit nM understood.

>  <smiles_entry>
Cc1cc(-c2cc(Cn3cnc(C(F)(F)F)c(Oc4cc(Cl)cc(C#N)c4)c3=O)n[nH]c2=O)ccc1F

>  <result_type>
IC50

>  <obs_value>
5

$$$$

Can you look up the measured IC50 of Cc1cc(F)cc(-c2cc(Cn3cnc(C(F)(F)F)c(Oc4cc(Cl)cc(C#N)c4)c3=O)n[nH]c2=O)c1 for me?
7

Can you look up the measured IC50 of N#Cc1cc(Cl)cc(Oc2c(C(F)(F)F)ncn(Cc3cnc(-c4ccnc5[nH]ccc45)[nH]c3=O)c2=O)c1 for me?
11

Can you look up the measured IC50 of N#Cc1cc(Cl)cc(Oc2c(C(F)(F)F)ncn(Cc3cc(-c4ccc5c(c4)CCO5)c(=O)[nH]n3)c2=O)c1 for me?
3

Recorded values, source patent US9718819B2.
